The reported measurements were obtained from the supplement of paper PMC12042874.

# Assay Comment: amyloid nucleation score (Sup35N fusion, yeast selection) (log enrichment); library NNK1; higher = more nucleation; inactive = no reads after selection;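 also: zero at mode of non-aggregating sequences after 7 days selection at 30°C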
Endpoint: amyloid nucleation score

The substance identified as RVLCICFEYINHRAGGSKSF registered its amyloid nucleation score at -0.08

The value of amyloid nucleation score measured for the substance YNSRRAWDACCFGLVPLWEC turned out to be 2.08

GET /value?item= VNAIRSHAVWNGGQGPRFHS &field=amyloid nucleation score returns -0.098

Looking up RRTTSMERYCR , I see its amyloid nucleation score listed as 0.291

Value of measured amyloid nucleation score for the entry SNPIRTNV : -0.533

More entries:
According to the records, this substance RHCPLAVFRKSPLLAIGKFG displays amyloid nucleation score of -0.685

Documented amyloid nucleation score of SFGKVPFDLPKNFPRVSSVT : -0.276

Record summary for LTHVIGIPRQPCEPLVHLYG : reported amyloid nucleation score = -0.745

Quick note, amyloid nucleation score for TAILLNVFKCSIFWVALK landed at -0.691
